Origin of measurements: paper PMC5540273

Test system: NEK9;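 further: KINOMEscan kinase panel screen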
measurement.setup: concentration: 1 μM, replicates: in singlicate; n = 1
Recorded %Inh for the following compounds
Give the value in % but do not write % after it.

> print(dat)
                                   compound  target  endpoint.value
1  Cc1cccc(-c2nc(Nc3ccncc3)c3ccccc3n2)n1 [GW855857]    NEK9               0
2  Cl.c1ccc(-c2n[nH]cc2-c2ccnc(-c3ccc(CN4CCOCC4)cc3)c2)nc1 [GW776245]    NEK9               0

Please give the measured %Inh for this compound: O=C(Nc1n[nH]c2nc(-c3nccs3)c(Br)cc12)C1CC1 [SB-742251] 0
